Let's go through some recorded IC50 values for SARS-CoV 3CLpro (Severe acute respiratory syndrome coronavirus, UniProt P0C6X7) together.
Number in µM, nothing else.

Example entries begin here.
>>> print(df.to_string())
                               given_smiles                             target_system  measured_number
0      C[C@H](Cn1cnc2c(N)ncnc21)OCP(=O)(O)O  SARS-CoV 3CLpro (Severe acute respiratory syndrome coronavirus, UniProt P0C6X7)             14.2
1  CCCc1nn(C)c2c(=O)[nH]c(-c3cc(S(=O)(=O)N4CCN(C)CC4)ccc3OCC)nc12  SARS-CoV 3CLpro (Severe acute respiratory syndrome coronavirus, UniProt P0C6X7)             12.5
2  Nc1nc(NC2CC2)c2ncn([C@H]3C=C[C@@H](CO)C3)c2n1  SARS-CoV 3CLpro (Severe acute respiratory syndrome coronavirus, UniProt P0C6X7)             24.7

Consider the additional compound presented here.
Request - read-out IC50 | tested on SARS-CoV 3CLpro (Severe acute respiratory syndrome coronavirus, UniProt P0C6X7) | compound CC(C)(C)NC(=O)[C@@H]1CN(Cc2cccnc2)CCN1C[C@@H](O)C[C@@H](Cc1ccccc1)C(=O)N[C@H]1c2ccccc2C[C@H]1O
31.5

* * *

Target: SARS-CoV-2 3CLpro (Severe acute respiratory syndrome coronavirus 2, UniProt P0DTD1)
METRIC: IC50 (µM)
Expressed in µM, but write only the number.

>>> df
                               given_smiles  metric  measured_number
0  Nc1nc(NC2CC2)c2ncn([C@H]3C=C[C@@H](CO)C3)c2n1    IC50             12.6

# next compound below
Would you kindly share the measured IC50 for CCCc1nn(C)c2c(=O)[nH]c(-c3cc(S(=O)(=O)N4CCN(C)CC4)ccc3OCC)nc12 ?
8.25

Cited source for all entries: paper PMC8065850
